- study-target: T1, Chymase, from human skin (human, UniProt P23946 22-247)
- T1 sequence (looked up): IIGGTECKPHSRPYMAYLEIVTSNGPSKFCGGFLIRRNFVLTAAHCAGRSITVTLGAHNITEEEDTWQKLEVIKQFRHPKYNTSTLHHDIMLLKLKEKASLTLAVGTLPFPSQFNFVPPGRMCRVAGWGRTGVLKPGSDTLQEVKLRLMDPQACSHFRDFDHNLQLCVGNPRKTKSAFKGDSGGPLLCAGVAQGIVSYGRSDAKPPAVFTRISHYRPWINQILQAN
- procedure-text: cell-based or functional assay
Bridges are numbered along the chain shown (N, C = ends). [ ]: non-standard residue; d: D form.
measured-quantity: % inhibition at 100 µM (%)
Kindly provide the numeric value in % only, without the unit symbol.

What measured % inhibition at 100 µM goes with ICTKSDPPXCR (HELM PEPTIDE1{I.C.T.K.S.D.P.P.[Nle].C.R.[dP].P}$PEPTIDE1,PEPTIDE1,2:R3-10:R3|PEPTIDE1,PEPTIDE1,1:R1-13:R2$$$V2.0; SMILES CCCC[C@@H]1NC(=O)[C@@H]2CCCN2C(=O)[C@@H]2CCCN2C(=O)[C@H](CC(=O)O)NC(=O)[C@H](CO)NC(=O)[C@H](CCCCN)NC(=O)[C@H]([C@@H](C)O)NC(=O)[C@@H]2CSSC[C@H](NC1=O)C(=O)N[C@@H](CCCNC(=N)N)C(=O)N1CCC[C@@H]1C(=O)N1CCC[C@H]1C(=O)N[C@@H]([C@@H](C)CC)C(=O)N2) [Example 19] ?
26.9

What measured % inhibition at 100 µM goes with RCTKSDPPICF (HELM PEPTIDE1{R.C.T.K.S.D.P.P.I.C.F.[dP].P}$PEPTIDE1,PEPTIDE1,2:R3-10:R3|PEPTIDE1,PEPTIDE1,1:R1-13:R2$$$V2.0; SMILES CC[C@H](C)[C@@H]1NC(=O)[C@@H]2CCCN2C(=O)[C@@H]2CCCN2C(=O)[C@H](CC(=O)O)NC(=O)[C@H](CO)NC(=O)[C@H](CCCCN)NC(=O)[C@H]([C@@H](C)O)NC(=O)[C@@H]2CSSC[C@H](NC1=O)C(=O)N[C@@H](Cc1ccccc1)C(=O)N1CCC[C@@H]1C(=O)N1CCC[C@H]1C(=O)N[C@@H](CCCNC(=N)N)C(=O)N2) [Example 75] ?
0

What measured % inhibition at 100 µM goes with FCTXSDPPICY (HELM PEPTIDE1{F.C.T.[Nle].S.D.P.P.I.C.Y.[dP].P}$PEPTIDE1,PEPTIDE1,2:R3-10:R3|PEPTIDE1,PEPTIDE1,1:R1-13:R2$$$V2.0; SMILES CCCC[C@@H]1NC(=O)[C@H]([C@@H](C)O)NC(=O)[C@@H]2CSSC[C@H](NC(=O)[C@H]([C@@H](C)CC)NC(=O)[C@@H]3CCCN3C(=O)[C@@H]3CCCN3C(=O)[C@H](CC(=O)O)NC(=O)[C@H](CO)NC1=O)C(=O)N[C@@H](Cc1ccc(O)cc1)C(=O)N1CCC[C@@H]1C(=O)N1CCC[C@H]1C(=O)N[C@@H](Cc1ccccc1)C(=O)N2) [Example 23] ?
60

What measured % inhibition at 100 µM goes with FCTKSDPPICD (HELM PEPTIDE1{F.C.T.K.S.D.P.P.I.C.D.[dP].P}$PEPTIDE1,PEPTIDE1,2:R3-10:R3|PEPTIDE1,PEPTIDE1,1:R1-13:R2$$$V2.0; SMILES CC[C@H](C)[C@@H]1NC(=O)[C@@H]2CCCN2C(=O)[C@@H]2CCCN2C(=O)[C@H](CC(=O)O)NC(=O)[C@H](CO)NC(=O)[C@H](CCCCN)NC(=O)[C@H]([C@@H](C)O)NC(=O)[C@@H]2CSSC[C@H](NC1=O)C(=O)N[C@@H](CC(=O)O)C(=O)N1CCC[C@@H]1C(=O)N1CCC[C@H]1C(=O)N[C@@H](Cc1ccccc1)C(=O)N2) [Example 2] ?
0

What measured % inhibition at 100 µM goes with cyclo(ICTKSDPAICR[dP]P) (disulfide 2-10) [Example 52] ?
42.3
